Recorded Log P[a] values for a group of compounds are listed next.
test: LogP by HPLC on reversed phase columns (EEC directive 79/831 Annex V.A8); type: physicochemical; conditions: Table 1, compounds of formula (I); LC-UV, acidic range, 0.1% formic acid in water and acetonitrile as eluent
experimental-endpoint: Log P[a]

INSERT INTO assay_data (compound, measured_value) VALUES
  ('CSCCOC(=O)C1(c2nc(C3=NOC(c4ccccc4-c4ccccc4)C3)cs2)CCN(C(=O)Cn2nc(C(F)F)cc2C(F)F)CC1 (stereo not shown)', 4.77),
  ('COC(=O)C1(c2nc(C3=NOC(c4c(Cl)cccc4OS(C)(=O)=O)C3)cs2)CCN(C(=O)Cn2nc(C(F)F)cc2C(F)F)CC1 (stereo not shown)', 3.44),
  ('CCOC(=O)C1(c2nc(C3=NOC(c4ccccc4-c4ccccc4)C3)cs2)CCN(C(=O)Cn2nc(C(F)F)cc2C(F)F)CC1 (stereo not shown)', 4.64),
  ('COC(=O)C1(c2nc(C3=NOC(c4ccccc4-c4ccccc4)C3)cs2)CCN(C(=O)Cn2nc(C(F)F)cc2C)CC1 (stereo not shown)', 4.09),
  ('O=C(Cn1nc(C(F)F)cc1C(F)F)N1CCC(C(=O)OCc2ccccc2)(c2nc(C3=NOC(c4ccccc4-c4ccccc4)C3)cs2)CC1 (stereo not shown)', 5.08),
  ('COC(=O)C1(c2nc(C3=NOC(c4ccccc4-c4ccccc4)C3)cs2)CCN(C(=O)Cn2nc(C(F)(F)F)cc2C)CC1 (stereo not shown)', 4.49),
  ('COC(=O)C1(c2nc(C3=NOC(c4ccccc4-c4ccccc4)C3)cs2)CCN(C(=O)Cn2nc(C(F)F)cc2C(F)F)CC1 (stereo not shown)', 4.36);

###

Recorded Log P[a] by entry
assay: LogP by HPLC on reversed phase columns (EEC directive 79/831 Annex V.A8); type: physicochemical
experimental-endpoint: Log P[a]

INSERT INTO measurements (compound, experimental_endpoint, measured_value) VALUES
  ('C#CCOC(=O)C1(C#N)CCN(C(=O)Cn2nc(C(F)F)cc2C(F)F)CC1', 'Log P[a]', 2.52),
  ('C#CCOc1ccc(F)c(F)c1C1CC(c2csc(C3(C(=O)OC)CCN(C(=O)Nc4cc(C(F)F)nn4C)CC3)n2)=NO1 (stereo not shown)', 'Log P[a]', 3.00),
  ('CC(C)(C)OC(=O)C1(C#N)CCN(C(=O)Cc2ccccc2)CC1', 'Log P[a]', 2.96),
  ('C#CCOc1ccc(F)c(F)c1C1CC(c2csc(C3(C(=O)OC)CCN(C(=O)Cn4nc(C(F)F)cc4C(F)F)CC3)n2)=NO1 (stereo not shown)', 'Log P[a]', 3.61),
  ('C#CCOc1ccccc1C1CC(c2csc(C3(C(=O)OC)CCN(C(=O)Nc4cn(C)nc4C(F)F)CC3)n2)=NO1 (stereo not shown)', 'Log P[a]', 2.88),
  ('C#CCOc1ccccc1C1CC(c2csc(C3(C(=O)OC(C)C)CCN(C(=O)Cn4nc(C(F)F)cc4C(F)F)CC3)n2)=NO1 (stereo not shown)', 'Log P[a]', 4.14),
  ('N#CC1(C(=O)O)CCN(C(=O)Cn2nc(C(F)F)cc2C(F)F)CC1', 'Log P[a]', 1.44);

###

assay: LogP by HPLC on reversed phase columns (EEC directive 79/831 Annex V.A8); format: physicochemical
Cut-off 3 on Log P[a], inclusive. At or above means 1; below means -1.

INSERT INTO assay_data (compound, class_label) VALUES
  ('NC(=S)C1(C(=O)OCc2ccccc2)CCN(C(=O)Cn2nc(C(F)F)cc2C(F)F)CC1 [II-4]', -1),
  ('N#CC1(C(=O)O)CCN(C(=O)Nc2ccccc2)CC1 [IV-21]', -1),
  ('COC(=O)C1(C#N)CCN(C(=O)Nc2cc(C(F)F)ccc2C(F)F)CC1 [IV-16]', -1),
  ('N#CC1(C(=O)OCc2ccccc2)CCN(C(=O)Cn2nc(C(F)F)cc2C(F)F)CC1 [IV-6]', 1),
  ('O=C(Cn1nc(C(F)F)cc1C(F)F)N1CCC(C(=O)OC2CCOC2)(c2nc(C3=NOC(c4c(F)cccc4F)C3)cs2)CC1 (stereo not shown) [Example I-55]', 1),
  ('CSCCOC(=O)C1(c2nc(C3=NOC(c4c(F)cccc4F)C3)cs2)CCN(C(=O)Cn2nc(C(F)F)cc2C(F)F)CC1 (stereo not shown) [Example I-49]', 1),
  ('C#CCOc1ccc(F)c(F)c1C1CC(c2csc(C3(C(=O)OCCSC)CCN(C(=O)Cn4nc(C(F)F)cc4C(F)F)CC3)n2)=NO1 (stereo not shown) [Example I-52]', 1),
  ('C#CCOc1ccc(F)c(F)c1C1CC(c2csc(C3(C(=O)OC)CCN(C(=O)Nc4cn(C)nc4C(F)F)CC3)n2)=NO1 (stereo not shown) [Example I-21]', -1),
  ('CCC(C)NC(=O)C1(C#N)CCN(C(=O)Cc2ccc(Cl)cc2)CC1 (stereo not shown) [IV-37]', -1),
  ('COCCOC(=O)C1(C(N)=S)CCN(C(=O)Cn2nc(C(F)F)cc2C(F)F)CC1 [II-18]', -1),
  ('C#CCOc1ccccc1C1CC(c2csc(C3(C(=O)OC)CCN(C(=O)Cn4nc(C(F)F)cc4C(F)F)CC3)n2)=NO1 (stereo not shown) [Example I-4]', 1),
  ('COC(=O)C1(c2nc(C3=NOC(c4c(Cl)cccc4OS(C)(=O)=O)C3)cs2)CCN(C(=O)Nc2cn(C)nc2C(F)F)CC1 (stereo not shown) [Example I-14]', -1),
  ('COC(=O)C1(c2nc(C3=NOC(c4ccccc4OS(C)(=O)=O)C3)cs2)CCN(C(=O)Cn2nc(C(F)(F)F)cc2C)CC1 (stereo not shown) [Example I-71]', 1),
  ('CCC(C)NC(=O)C1(C#N)CCN(C(=O)Nc2cccc(C#N)c2)CC1 (stereo not shown) [IV-36]', -1),
  ('C#CCOc1ccc(F)c(F)c1C1CC(c2csc(C3(C(=O)OCC=C)CCN(C(=O)Cn4nc(C(F)F)cc4C(F)F)CC3)n2)=NO1 (stereo not shown) [Example I-46]', 1),
  ('C#CCOc1ccccc1C1CC(c2csc(C3(C(=O)OC)CCN(C(=O)Nc4cc(C(F)(F)F)nn4C)CC3)n2)=NO1 (stereo not shown) [Example I-80]', 1),
  ('CCC(C)NC(=O)C1(C#N)CCN(C(=O)Nc2ccc(Cl)c(C(F)(F)F)c2)CC1 (stereo not shown) [IV-39]', 1),
  ('COC(=O)C1(C(N)=S)CCN(C(=O)Nc2cc(C(F)(F)F)nn2C)CC1 [II-19]', -1),
  ('C#CCOc1ccc(F)c(F)c1C1CC(c2csc(C3(C(=O)OC4CCOC4)CCN(C(=O)Cn4nc(C(F)F)cc4C(F)F)CC3)n2)=NO1 (stereo not shown) [Example I-59]', 1),
  ('CSCCOC(=O)C1(C#N)CCN(C(=O)Cn2nc(C(F)F)cc2C(F)F)CC1 [IV-3]', -1),
  ('CCC(C)NC(=O)C1(C#N)CCN(C(=O)Cc2ccccc2)CC1 (stereo not shown) [IV-38]', -1),
  ('N#CC1(C(=O)OC2CCOC2)CCN(C(=O)Cn2nc(C(F)F)cc2C(F)F)CC1 (stereo not shown) [IV-1]', -1),
  ('CCC(C)NC(=O)C1(C#N)CCN(C(=S)Nc2cccc(Cl)c2)CC1 (stereo not shown) [IV-35]', -1),
  ('Cc1cc(C(F)F)nn1CC(=O)N1CCC(C#N)(C(=O)O)CC1 [IV-8]', -1),
  ('COC(=O)C1(C(N)=S)CCN(C(=O)Cn2nc(C)cc2C(F)F)CC1 [II-5]', -1),
  ('CC(C)=CCNC(=O)C1(C#N)CCN(C(=O)Nc2ccccc2)CC1 [IV-42]', -1),
  ('COC(=O)C1(C#N)CCN(C(=O)Nc2cn(C)nc2C(F)F)CC1 [IV-34]', -1),
  ('C#CCOc1ccc(F)c(F)c1C1CC(c2csc(C3(C(=O)OC)CCN(C(=O)Cn4nc(C(F)F)cc4C)CC3)n2)=NO1 (stereo not shown) [Example I-66]', 1),
  ('CS(=O)(=O)Oc1cccc(Cl)c1C1CC(c2csc(C3(C(=O)OCc4ccccc4)CCN(C(=O)Cn4nc(C(F)F)cc4C(F)F)CC3)n2)=NO1 (stereo not shown) [Example I-35]', 1);

###

assay: LogP by HPLC on reversed phase columns (EEC directive 79/831 Annex V.A8); type: physicochemical
As shown below, each of these compounds has a reported Log P[a] value.
experimental-endpoint: Log P[a]

INSERT INTO assay_data (compound, experimental_endpoint, measured_value) VALUES
  ('C=CCOC(=O)C1(c2nc(C3=NOC(c4ccccc4)C3)cs2)CCN(C(=O)Cn2nc(C(F)F)cc2C(F)F)CC1 (stereo not shown)', 'Log P[a]', 3.85),
  ('COCCOC(=O)C1(C#N)CCN(C(=O)Cn2nc(C(F)F)cc2C(F)F)CC1', 'Log P[a]', 2.32),
  ('CC(C)(C)OC(=O)C1(C#N)CCN(C(=O)Nc2ccc(F)cc2)CC1', 'Log P[a]', 2.96),
  ('CC(C)=CCNC(=O)C1(C#N)CCN(C(=O)Nc2ccc(Cl)cc2)CC1', 'Log P[a]', 2.68);

Where do the numbers come from? From patent US9717243B2.
